# experiment-notes: RNA encapsulation efficiency of LNPs by Quant-IT Ribogreen
# Format: physicochemical
# condition: LNPs with luciferase mRNA; ionizable lipid:non-cationic lipid:sterol:PEG-modified lipid 50:10:38.5:1.5; percentage of RNA entrapped in the LNP
Measured Encaps. efficiency (%) by item
Numeric only. Scale: %

Examples with their reported Encaps. efficiency (%) follow.
CCCCCCCCCCCCCCCCOC(=O)CCSCCC(NC(=O)C(CCCCCC)CCCCCCCC)C(=O)NCCCN1CCCC1 (stereo not shown) | 89.76
CCCCCCCCCCCCC(CCCCCCCCCC)COC(=O)CCSCCC(NC(=O)C(CCCCCC)CCCCCCCC)C(=O)NCCN(CC)CC (stereo not shown) | 62.43
CCCCCCCCC(CCCCCCCC)OC(=O)C(CCSCCC(=O)OCC(CC)CCCC)C(=O)NCCCn1ccnc1 (stereo not shown) | 66.86
CCCCCCCCCCCCCCOC(=O)CCSCCC(NC(=O)C(CCCCCCCC)CCCCCCCCCC)C(=O)NCCCN1CCOCC1 (stereo not shown) | 55.61

Exercise: Report Encaps. efficiency (%), nothing else, for this compound: CCCCCCCCCCCCCCCCCCOC(=O)CCSCCC(NC(=O)C(CCCCCC)CCCCCCCC)C(=O)NC1CCN(C)CC1 (stereo not shown)
Solution: 58.34

Exercise: Note down Encaps. efficiency (%) recorded for CCCCCCCCCCCCCCOC(=O)CCSCCC(C(=O)NCCCN1CCOCC1)C(=O)OCC(CCCCCC)CCCCCCCC (stereo not shown)
Solution: 55.68

Exercise: Read off the recorded Encaps. efficiency (%) for CCCCCCCCCCCCOC(=O)CCSCCC(C(=O)NCCCN1CCOCC1)C(=O)OCC(CCCCCC)CCCCCCCC (stereo not shown)
Solution: 54.21

###

# experiment-notes: Size distribution, polydispersity and Z-potential of LNPs by dynamic light scattering (Malvern Zetasizer)
# Format: physicochemical
# condition: LNPs, standard formulation 50:10:38.5:1.5; DLS
# Procedure: The LNP solution was then adjusted to a final concentration of mRNA of 100 µg/ml. Size distribution, polydispersity and Z-potential were measured by dynamic light scattering (DLS) using Malvern Zetasizer Advance Lab Blue Label. RNA encapsulation was assessed by Quant-IT® Ribogreen following the manufacturer's instructions.
attribute-measured: P.D.I.
When you answer, write just the number.

CCCCCCCCC(CCCCCCCC)OC(=O)C(CSCCC(=O)OCCCCCC(C)C)CC(=O)NCCCN1CCOCC1 (stereo not shown) [VC-LC-0548] | 0.17
CCCCCCCCOC(=O)CCSCC(CC(=O)NCCCn1ccnc1)C(=O)OC(CCCCCCCC)CCCCCCCC (stereo not shown) [VC-LC-0307] | 0.14
CCCCCCCCC(CCCCCC)COC(=O)CCSCCC(C(=O)NC1CCN(C)CC1)C(=O)OC(CCCCCCCC)CCCCCCCC (stereo not shown) [VC-LC-0439] | 0.1

Now turn to the next compound.
Exercise: Given the compound CCCCCCCCC(CCCCCCCC)OC(=O)C(CSCCC(=O)OCCCCCCCC(C)C)CC(=O)NCCCN1CCOCC1 (stereo not shown) [VC-LC-0542] , write its reported P.D.I..
Solution: 0.14

###

# experiment-notes: Size distribution, polydispersity and Z-potential of LNPs by dynamic light scattering (Malvern Zetasizer)
# Type: physicochemical
# condition: LNPs, standard formulation 50:10:38.5:1.5; DLS
attribute-measured: Z Potential (± D.E.) [mV] (mV)
Give just the numeric value; mV need not be written.

Exercise: Report Z Potential (± D.E.) [mV], nothing else, for this molecule: CCCCCCCC#CCOC(=O)CCSCCC(NC(=O)C(CCCCCC)CCCCCCCC)C(=O)NCCN(CC)CC (stereo not shown)
Solution: -4.15

Exercise: Provide only the value of recorded Z Potential (± D.E.) [mV] for CCCCCCCC/C=C\CCCCCCCCOC(=O)CCSCCC(NC(=O)CCCCCCC/C=C\CCCCCCCC)C(=O)NCCCN1CCOCC1 (stereo not shown)
Solution: -4.71

Exercise: Given CCCCCCCCCCCCCCCCCCOC(=O)CCSCC(CC(=O)NCCCn1ccnc1)C(=O)OC(CCCCCCCC)CCCCCCCC (stereo not shown) , respond with its Z Potential (± D.E.) [mV].
Solution: -9.75

Exercise: Provide Z Potential (± D.E.) [mV] value for the following molecule: CCCCCCCCC(CCCCCC)C(=O)NC(CCSCCC(=O)OCCCCCC(C)C)C(=O)NCCCN(C)C (stereo not shown)
Solution: 0.00

Exercise: Please report the measured Z Potential (± D.E.) [mV] for CCCCCCCCC(CCCCCC)C(=O)NC(CCSCCC(=O)OCCCCCC)C(=O)NCCCN1CCOCC1 (stereo not shown)
Solution: -15.84

Exercise: For CCCCCCCCCCCCCCCCCCOC(=O)CCSCC(CC(=O)NCCCN1CCOCC1)C(=O)OC(CCCCCCCC)CCCCCCCC (stereo not shown) , write its Z Potential (± D.E.) [mV].
Solution: -10.43

Exercise: Find the measured Z Potential (± D.E.) [mV] of CCCCCCCCC(CCCCCCCC)OC(=O)C(CSCCC(=O)OCCCCCCCC(C)C)CC(=O)NCCCN1CCOCC1 (stereo not shown) and report it.
Solution: -10.60

###

# experiment-notes: RNA encapsulation efficiency of LNPs by Quant-IT Ribogreen
# Assay type: physicochemical
# condition: Table 8; LNP 50:10:38.5:1.5, luciferase mRNA
Sorting guide: entries reporting Encaps. efficiency beneath 90% go in the satisfied pile, the rest go in the not satisfied pile.

Example results:
CCCCCCCCCCCCCOC(=O)CCSCCC(NC(=O)C(CCCCCC)CCCCCCCC)C(=O)NCC1CCN(C)CC1 (stereo not shown) | not satisfied
CCCCCCCCC(CCCCCC)COC(=O)CCSCCC(NC(=O)C(CCCCCC)CCCCCCCC)C(=O)NC1CCN(C)CC1 (stereo not shown) | satisfied
CCCCCCCCC(CCCCCCCC)OC(=O)C(CSCCC(=O)OCCCCCCCC(C)C)CC(=O)NCCCn1ccnc1 (stereo not shown) | satisfied
CCCCCCCC/C=C\CCCCCCCCOC(=O)CCSCCC(C(=O)NC1CCN(C)CC1)C(=O)OC(CCCCCCCC)CCCCCCCC (stereo not shown) | satisfied

Switching to the query record.
Exercise: Dear colleague, could you confirm whether Encaps. efficiency of CCCCCCCCCCCCCCCCCCCCCCOC(=O)CCSCC(CC(=O)NCCCN1CCOCC1)C(=O)OC(CCCCCCCC)CCCCCCCC (stereo not shown) falls below 90%? Thanks.
Solution: satisfied

###

# experiment-notes: Size distribution, polydispersity and Z-potential of LNPs by dynamic light scattering (Malvern Zetasizer)
# Assay type: physicochemical
# condition: LNPs, standard formulation 50:10:38.5:1.5; DLS
attribute-measured: Particle size/ Ø (nm)
Give the value in nm but do not write nm after it.

CCCCCCCCC(CCCCCCCC)OC(=O)C(CCSCCC(=O)OCCCCCC(C)C)C(=O)NCCCn1ccnc1 (stereo not shown) [VC-LC-0370] | 134.7

Exercise: Hello, please tell me recorded Particle size/ Ø (nm) for this one: CCCCCCCCCCCCCCCCCC(=O)NC(CCSCCC(=O)OCCCCCCCCCCCC)C(=O)NC1CCN(C)CC1 (stereo not shown) [VC-LC-0434]
Solution: 214.6

Exercise: Respond only with Particle size/ Ø (nm) recorded for CCCCCCCCCCC(CCCCCCCC)C(=O)NC(CCSCCC(=O)OCCCCCC)C(=O)NCC1CCN(C)CC1 (stereo not shown) [VC-LC-0518]
Solution: 149.1

Exercise: Entry CCCCCCCCC(CCCCCCCC)OC(=O)C(CSCCC(=O)OCCCCCC)CC(=O)NCCCN1CCOCC1 (stereo not shown) [VC-LC-0550] needs its Particle size/ Ø (nm) filled in; supply it.
Solution: 173.7

Exercise: Answer with reported Particle size/ Ø (nm) of CCCCCCCCCCCCOC(=O)CCSCC(CC(=O)NC1CCN(C)CC1)C(=O)OCC(CCCCCC)CCCCCCCC (stereo not shown) [VC-LC-0528]
Solution: 137.4

Exercise: Determine its reported Particle size/ Ø (nm): CCCCCCCC/C=C\CCCCCCCC(=O)NC(CCSCCC(=O)OCCCCCCCCCCCCC)C(=O)NCCCN(CCO)CCO (stereo not shown) [VC-LC-0289]
Solution: 207.1

Exercise: Return Particle size/ Ø (nm) (reported value) for this compound: CCCCCCCCCCCCCCCCOC(=O)CCSCCC(C(=O)NCCCn1ccnc1)C(=O)OC(CCCCCCCC)CCCCCCCC (stereo not shown) [VC-LC-0369]
Solution: 137.6

###

Here, each record is paired with measured P.D.I. data.
# experiment-notes: Size distribution, polydispersity and Z-potential of LNPs by dynamic light scattering (Malvern Zetasizer)
# Assay type: physicochemical
# condition: LNPs, standard formulation 50:10:38.5:1.5; DLS
Give the value as a plain number.

Here's what some known entries look like.
CCCCCCCCCCCCCCCCOC(=O)CCSCCC(NC(=O)C(CCCCCC)CCCCCCCC)C(=O)NCCCN1CCCC1 (stereo not shown) [VC-LC-0248] | 0.35
CCCC#CCCOC(=O)CCSCCC(NC(=O)C(CCCCCC)CCCCCCCC)C(=O)NC1CCN(C)CC1 (stereo not shown) [VC-LC-0432] | 0.29
CCCCCCCCC(CCCCCC)C(=O)NC(CCSCCC(=O)OCCCCCC)C(=O)NCCCN1CCOCC1 (stereo not shown) [VC-LC-0175] | 0.09
CCCCCCCCCCCCC(CCCCCCCCCC)COC(=O)CCSCCC(NC(=O)C(CCCCCCCC)CCCCCCCCCC)C(=O)NCC1CCN(C)CC1 (stereo not shown) [VC-LC-0521] | 0.071

Exercise: Supply measured P.D.I. of CCCCCCCCC(CCCCCC)C(=O)NC(CCSCCC(=O)OCCCCCCCC(C)C)C(=O)NCCN1CCN(C)CC1 (stereo not shown) [VC-LC-0180] in your reply.
Solution: 0.19

Exercise: For the compound CCCCCCCCCCCCCCOC(=O)CCSCCC(C(=O)NCCCn1ccnc1)C(=O)OC(CCCCCCCC)CCCCCCCC (stereo not shown) [VC-LC-0367] , report P.D.I..
Solution: 0.19

Exercise: Complete the entry with P.D.I. for CCCCCCCC/C=C\CCCCCCCCOC(=O)CCSCCC(NC(=O)CCCCCCCCCCCCCCCCC)C(=O)NC1CCN(C)CC1 (stereo not shown) [VC-LC-0438]
Solution: 0.15
